Data origin: the supplement of paper PMC10567573

# method description: protein stability index of a GFP-peptide fusion (GPS, HEK-293T) (PSI 1-6); higher = more stable;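 note: 24-mer peptide tiles fused after GFP, lentivirally expressed, FACS-sorted into six equal bins by GFP/DsRed ratio, decoded by Illumina sequencing, PSI is the read-weighted mean bin number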
# condition set: treatment: MLN4924 1 uM, 8 h; c terminus: native
measured parameter: protein stability index

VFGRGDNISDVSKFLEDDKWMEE [LUC7L3]    3.38
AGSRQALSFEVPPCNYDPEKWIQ    3.35

For the 2 sequences below, give their protein stability index values.
1. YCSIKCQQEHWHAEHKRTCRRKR [ZMYND11]
2. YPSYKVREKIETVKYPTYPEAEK [FUT8]

[3.51, 4.16]

====

# method description: protein stability index of a GFP-peptide fusion (GPS, HEK-293T) (PSI 1-6); higher = more stable
# condition set: treatment: MLN4924 1 uM, 8 h; c terminus: a fixed tail appended
We use 3 as the dividing line for protein stability index: on or above the line is YES, below is NO.

Reference set (3 entries):
FEPPAPGEGNSSQNSRNKRAVQGP [TNFSF13B]    YES
HYDLLNLNGTKVAEGHKASFCLED [LOXL2]    YES
RGPVVPKHSTFGQSLTQRLHALKL [GNAS]    NO

Could you now look at the following sequence, please?
Textbook exercise: given the entry LMHIAHIAELLEVFDLRMMVANIL [RHOBTB2] , state whether its protein stability index is greater than or equal to 3.
NO

====

Please provide measured protein stability index for the entries that follow.
# method description: protein stability index of a GFP-peptide fusion (GPS, HEK-293T) (PSI 1-6); higher = more stable
# condition set: treatment: MLN4924 1 uM, 8 h; c terminus: a fixed tail appended
Numbers only.

Some solved entries appear below for comparison.
EKPRVPAFACQVAGCCQVFDALDD [ZNF511]    3.99
PDKECRRCMQCDAKFDFLTRKHHC [ZFYVE21]    4
LAAPSLHVKEQLPCAGLNCQALDA [TLE6]    3.97
PVIIAAVGTRQNEELPCTCPLCTS [RHOBTB3]    3.92

For the 8 sequences below, give their protein stability index values.
1. DDHGDECSYTDLLPQDEGGGGYSS [KCNA4]
2. VLKTSRSTPLSPAYISLVEEEDQH [KLHL13]
3. RTHSVIKEETNHSEMAEDLCKIGS [IKZF1]
4. EPQSEPVRVLDMVAKLESECLKRQ [FBXO34]
5. LPLMDLCRRSIRSALGRQRLQDIS [SPSB4]
6. EFQMFPKSRLSSVSVTYCSVSQDF [ETS2]
7. PLDMFSEEIKFYELGEEAMEKFRE [KCNA1]
8. RCLHMDQLQDFNIPQAGGWGPWGP [ADAMTS4]

1: 5.62; 2: 4.91; 3: 4.85; 4: 4.9; 5: 2.53; 6: 2.15; 7: 4.85; 8: 2.24

For the 2 sequences below, give their protein stability index values.
1. GGRGVSTCSTRFVSGGSAGGYGGG [KRT13]
2. HYAFRIFDFDDDGTLNREDLSRLV [CIB1]

1. 3.97
2. 2.78

For the 6 sequences below, give their protein stability index values.
1. SNCISGVCSVRGGEGRSRGSANDY [KRT71]
2. NDRMSTRHDGYATNDGNHPSCQET [RBMY1A1]
3. FSLVLVLDLSKPNDLWPTMENLLQ [DYNC2LI1]
4. LEKEIEVLERGDSAPATAKENAAA [PALM]
5. GDETAHRIDSQFLIGDTLLVAPVL [MYORG]
6. GVEIDEINVYGNTALHIACYNGQD [ANKRD44]

4.23
5.22
2.72
5.62
2.85
3.55

For the 3 sequences below, give their protein stability index values.
1. SLKEAEFYDKQLKVLLSGATFLVT [ZFYVE21]
2. GSVGAAICGLQQDEEVSSLTCDAL [CCND2]
3. QPYPLPHVRHMAYQLCHALRFLHE [CLK3]

2.55
4.63
2.1

====

Please provide measured protein stability index for the entries that follow.
# method description: protein stability index of a GFP-peptide fusion (GPS, HEK-293T) (PSI 1-6); higher = more stable
# condition set: treatment: DMSO; c terminus: a fixed tail appended

Some solved entries appear below for comparison.
KRYSMYLTPKGGVRTSYQPSSPGR [TRIM29]    3.15
MRPPMPPHGQYGGHHQGMPGYLPG [ZNF207]    3.23
FLPSLRPPPLTSPSHGSLSHSKAP [NCF4]    3.45
ATQIQQLLQDKQFELALQLAEMKD [VPS39]    3.11
ITYESSQVDPGTDLEPGVLMSAQT [EPB41L3]    4.29
DEVARRWGKRKNKPKMNYEKLSRG [ETS2]    4.11
LEVNRLMGKLLQQPNTYADFEFLA [PKD2L1]    2.17
QAFQLPKLGALLSRCRKLVEYFQQ [ZBED1]    2.52
SVKLRALRSPRKFGVAGRSCQEVL [DFFB]    2.73
HYDLLNLNGTKVAEGHKASFCLED [LOXL2]    4.12

For the 2 sequences below, give their protein stability index values.
1. EDSKELRALRKMVSNMSGPSGEEE [CBY2]
2. LEKEIEVLERGDSAPATAKENAAA [PALM]

[5.15, 5.34]

For the 5 sequences below, give their protein stability index values.
1. QCDALIDALNRRKAQLLARVNKEH [TRIM9]
2. ESDPSDPNKDMVVQLIDDFKISGM [SRPK2]
3. LEKGLEPEPQVPGPAHGPAQEEPW [ZNF232]
4. EKRGCPRTALEYCKLILSLEPDED [TCF25]
5. LPSLSCRTSCSSRPCVPPSCHGYT [KRT33B]

[3.05, 4.82, 5.35, 3.37, 2.1]

For the 5 sequences below, give their protein stability index values.
1. KLKESTVRRRYSDFEWLRSELERE [SNX3]
2. LTVRLHTQSVSECITEDGRTVAVG [PWWP2B]
3. LSEALKEATKEVHTQAENAEFMRN [HMOX1]
4. AKDLRAPPEQGKIFIARRSLLDEL [SOAT1]
5. DDHGDECSYTDLLPQDEGGGGYSS [KCNA4]

2.99
3.2
4.92
3.23
5.52

====

Please provide measured protein stability index for the entries that follow.
# method description: protein stability index of a GFP-peptide fusion (GPS, HEK-293T) (PSI 1-6); higher = more stable
# condition set: treatment: MLN4924 1 uM, 8 h; c terminus: a fixed tail appended
Give bare numbers.

Some solved entries appear below for comparison.
MTWSPLACGIVSGKYDSGIPPYSR [KCNAB2]    2.92
QLMTSQFISVFSNLLESKADGIEV [ZER1]    2.5
LSIVLERMRYEGVVDIFQTVKMLR [PTPRD]    2.42

What does the record list as protein stability index for SMSGGRFRCPTCRHEVIMDRHGVY [TRIM63] ?
2.39

====

# method description: protein stability index of a GFP-peptide fusion (GPS, HEK-293T) (PSI 1-6); higher = more stable
# condition set: treatment: DMSO; c terminus: a fixed tail appended
measured parameter: protein stability index
Give bare numbers.

VLRCQLGDRLNVEVDAAPPVDLNK [KRT36]    4.06
PKTMSQKEMEQLFSQYGRIITSRI [ELAVL3]    2.68
GPGIPPLMPGMPPGMPPPVPRPGI [ZNF207]    4.29

For the 8 sequences below, give their protein stability index values.
1. DLRTVDPETQARLEALLEAAGIGK [ANKRD17]
2. FGNSEKPETMTCRLSNNQRYLFLD [ZFYVE21]
3. LPPQYVDDVISRIDRMFPEMSIHL [MED27]
4. RTGSLFKIWLVVPSLLELAWEKLL [KLHDC10]
5. LPRRRGLRKKKTTKLRLERVKFRR [NEUROD6]
6. ANRWSFEGMDRWIKKIEEHAPGVP [RAB40A]
7. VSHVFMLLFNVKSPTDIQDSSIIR [RHOBTB3]
8. SLFIALITGAYDTIKHPGGAGAEE [MCOLN1]

3.84
2.44
2.19
2.84
3.85
3.33
2.81
2.45

For the 4 sequences below, give their protein stability index values.
1. KPASKPAGSSHTPSSQSSSGGGRD [ELOA2]
2. ICDLARSIDFNKDGHIDINEFLEA [PPEF2]
3. IDYYESKIRKIHTQRQYKEDESQS [CEP70]
4. SLWERLEFVNGWYILLVTSDVLTI [MCOLN1]

1: 5.47; 2: 3.6; 3: 4.08; 4: 3.5

====

# method description: protein stability index of a GFP-peptide fusion (GPS, HEK-293T) (PSI 1-6); higher = more stable
# condition set: treatment: DMSO; c terminus: a fixed tail appended
measured parameter: protein stability index
One number for each entry.

FTVNPKPRVEYIDRPRCCLRGKEC [BTBD1]    2.92

For the 2 sequences below, give their protein stability index values.
1. PTRNDLESGLGHFSLRVHTGCHKK
2. RPSMASELMPSSRLWSLSYTKLPS [SLC25A39]

1: 4.06; 2: 2.99
